# Test system: NCI-H23 lung
# TEST NAME: NCI tumour cell line growth inhibition, 48 h
# TGI per entry

| MOLECULE | VALUE PREFIX | TGI, µM |
| --- | --- | --- |
| COc1ccc(-c2cc(=O)oc3c4c(ccc23)OCN(Cc2ccc(F)cc2)C4)cc1 | = | 49.4 |
| C[C@@H]1CCC2[C@@H](C)[C@@H](O[C@H]3O[C@@H]4O[C@@]5(C)CCC6[C@H](C)CCC([C@H]3C)[C@]64OO5)O[C@@H]3O[C@@]4(C)CCC1[C@@]23OO4 (stereo partly drawn) | > | 25 |
| Cc1cc(C)nc(NS(=O)(=O)c2ccc(Nc3c4ccccc4nc4c(C(=O)N5CCN(CCO)CC5)cccc34)cc2)n1 | > | 100 |
| Cc1nc2c(Br)cc(Br)cc2c(=O)n1-c1nnc(-c2cccc(Cl)c2Cl)c(N)n1 | = | 65.5 |
| Cc1c2c(c(C)n1-c1ccccc1)C(=O)N(CCN1CCN(c3cccc(C(F)(F)F)c3)CC1)C2=O | > | 100 |
| CC(C)N1CCN(c2ccc(OCC3COC(Cn4cncn4)(c4ccc(Cl)cc4Cl)O3)cc2)CC1 (stereo not drawn) | = | 30.9 |
| C=CC1(C)CC(=O)C2(O)C(C)(O1)C(OC(C)=O)C(O)C1C(C)(C)CCC(O)C12C (stereo not drawn) | > | 150 |
| CCCCCCCCSC1=C(Cl)C(=O)C(OC)=C(OC)C1=O | = | 31.5 |
